Molecular target: human mAChR M1 (Homo sapiens)
Sequence (P11229 1-460): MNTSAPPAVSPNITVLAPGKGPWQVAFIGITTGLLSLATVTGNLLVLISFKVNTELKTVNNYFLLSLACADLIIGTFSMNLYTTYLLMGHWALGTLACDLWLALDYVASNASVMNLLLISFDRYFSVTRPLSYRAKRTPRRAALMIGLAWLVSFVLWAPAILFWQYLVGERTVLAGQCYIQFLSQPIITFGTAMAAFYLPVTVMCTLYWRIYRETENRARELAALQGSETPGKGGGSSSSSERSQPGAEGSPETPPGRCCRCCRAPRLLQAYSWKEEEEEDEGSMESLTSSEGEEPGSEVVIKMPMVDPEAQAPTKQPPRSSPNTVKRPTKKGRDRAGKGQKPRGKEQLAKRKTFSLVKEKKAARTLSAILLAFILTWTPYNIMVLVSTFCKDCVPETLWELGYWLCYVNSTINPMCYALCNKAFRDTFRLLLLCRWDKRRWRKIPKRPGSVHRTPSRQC
Test: mAChR M1 cell-based functional assay (calcium mobilization, PAM activity)
Conditions: CHO-K1 cells expressing hM1; calcium flux (Fluo-4); potentiation of EC20 acetylcholine response
Would you mind labelling by Emax? At or over 70% is rule met, under is rule not met.

As a guide, the following entries are already answered.
Cn1cc(-c2ccc(Cc3cc(C(=O)N[C@H]4CCC[C@@H]4O)c4nccn4c3)c(F)c2)cn1 | rule met
O=C(N[C@H]1CCCC[C@@H]1O)c1cc(Cc2ccc(-n3cccn3)cc2)cn2ccnc12 | rule met
Cn1cc(-c2ccc(Cc3cc(C(=O)N[C@H]4CCOC[C@@H]4O)c4nccn4c3)c(F)c2)cn1 | rule not met
Cn1ccc(-c2ccc(Cc3cc(C(=O)NC4CC5(COC5)C4)c4ncnn4c3)cc2)n1 | rule not met
Cn1ccc(-c2ccc(Cc3cc(C(=O)N[C@H]4CCOC[C@@H]4O)c4nccn4c3)cn2)n1 | rule met
Cn1cc(-c2cc(F)c(Cc3cc(C(=O)N[C@H]4CCOC[C@@H]4O)c4nccn4c3)c(F)c2)cn1 | rule not met
Cn1ccc(-c2ccc(Cc3cc(C(=O)NC4CC5(COC5)C4)c4nccn4c3)cc2)n1 | rule met

Kindly consider the entry below.
Item Cn1cc(-c2ccc(Cc3cc(C(=O)N[C@H]4CCC[C@@H]4O)c4ncnn4c3)cn2)cn1 with Emax of 70% or above? rule met
